I'd appreciate it if you could supply IC50 values for the items below.
target: ligand binding domain of PPAR delta (Homo sapiens, UniProt Q03181); construct: purchased Invitrogen; assay: LANTHA SCREEN TR-FRET PPARδ Competitive Binding Assay; conditions: competes binding by a labeled pan-agonist by 50%; * = determined by approximation from a semi log graph; read-out: TR-F binding IC50
Sequence (Q03181 211-439 limits assumed): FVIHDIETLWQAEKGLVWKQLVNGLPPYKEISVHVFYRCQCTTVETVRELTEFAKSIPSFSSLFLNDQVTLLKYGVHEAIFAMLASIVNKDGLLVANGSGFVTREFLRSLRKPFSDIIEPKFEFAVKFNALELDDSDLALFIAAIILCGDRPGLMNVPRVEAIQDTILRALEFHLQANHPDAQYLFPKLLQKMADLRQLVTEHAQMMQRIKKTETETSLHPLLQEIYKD
Answers are plain numbers, in µM.

Known results for compounds:
Cc1cc(SCCN2c3ccccc3Sc3ccccc32)ccc1OCC(=O)O 13.7
Cc1cc(SCCOC(c2ccc(F)cc2)c2ccc(F)cc2)ccc1OCC(=O)O 0.85
Cc1cc(SCCN2c3ccccc3Sc3ccc(C(F)(F)F)cc32)ccc1OCC(=O)O 3.8

Below: the item to evaluate.
Query string: Find the recorded IC50 belonging to Cc1cc(SCc2sc(-c3cccc4ccccc34)nc2C)ccc1OCC(=O)O and report it.
Result string: 2.4

###

system: PC-3 cells; assay: Alamar Blue proliferation assay, PC-3; format: cell-based; details: Homo sapiens, 96 h; PC-3, 0-40 μM, 0.5% serum, 4 days; read-out: IC50 for growth inhibition
pIC50: −log10 of the molar value.
EXPERIMENTAL ENDPOINT: pIC50

Query string: What does the data say about its pIC50? Entry: Cc1cc(SCc2sc(-c3cccc4ccccc34)nc2C)ccc1OCC(=O)O
Result string: < 4.52

###

Target: ligand binding domain of PPAR delta (Homo sapiens, UniProt Q03181)
Construct: purchased Invitrogen
Test: LANTHA SCREEN TR-FRET PPARδ Competitive Binding Assay
Conditions: competes binding by a labeled pan-agonist by 50%; * = determined by approximation from a semi log graph; read-out: TR-F binding IC50
Description: The LANTHA SCREEN™ TR-FRET PPARδ Competitive Binding Assay was conducted for a variety of compounds according to the instructions provided by the manufacturer (Invitrogen). In addition, proliferation assays were conducted. In Table 2, “Prolif IC50” is the concentration that inhibits cell viability (or growth) by 50% relative to a vehicle control, and “TR-F binding IC50 (μM)” is the concentration that competes binding by a labeled pan-agonist to the ligand binding domain of PPAR delta, by 50%.
EXPERIMENTAL ENDPOINT: IC50

Return reported IC50 values for all items listed beneath this line.
1. Cc1cc(SCCOC(c2ccccc2)c2ccc(C(F)(F)F)cc2)ccc1OCC(=O)O (stereo not shown) [SRI-010254]
2. COc1ccc(CN(C(=O)CSc2ccc(OCC(=O)O)c(C)c2)C(c2ccccc2)c2ccccc2)cc1OC [SRI-010259]
3. COc1ccc(CN(C(=O)CCSc2ccc(OCC(=O)O)c(C)c2)C(c2ccccc2)c2ccccc2)cc1OC [SRI-010265]

Result string:
1: 1.3 µM; 2: > 30 µM; 3: > 30 µM

Query string: Request the reported IC50 associated with Cc1cc(SCCC(=O)NC(c2ccccc2)c2ccccc2)ccc1OCC(=O)O [SRI-010266]
Result string: > 30 µM

###

assay: Proliferation assay of Table 2 (cell line not stated); format: cell-based; settings: concentration that inhibits cell viability (or growth) by 50% relative to vehicle control; read-out: Prolif IC50
Assign pIC50 to each entry below.
Answers are plain numbers, as −log10 of the molar value.

Example entries begin here.
COMPOUND	OBSERVED RESULT
Cc1cc(SCC(=O)N(Cc2ccc(Cl)cc2Cl)C(c2ccccc2)c2ccccc2)ccc1OCC(=O)O [SRI-010258]	5.32
Cc1cc(SCCC(=O)N(Cc2ccccc2)C(c2ccccc2)c2ccccc2)ccc1OCC(=O)O [SRI-010261]	5.07

The following compounds each have a reported value; give each one's pIC50.
1. Cc1cc(SCCOC(c2ccccc2)c2ccc(C(F)(F)F)cc2)ccc1OCC(=O)O (centres unmarked) [SRI-010254]
2. Cc1cc(SCCn2c3ccccc3c3ccccc32)ccc1OCC(=O)O [SRI-010252]
3. Cc1cc(SCC(=O)N(Cc2ccccc2)C(c2ccccc2)c2ccccc2)ccc1OCC(=O)O [SRI-010255]
4. Cc1cc(SCCC(=O)N(Cc2ccc(F)c(F)c2)C(c2ccccc2)c2ccccc2)ccc1OCC(=O)O [SRI-010263]

Result string:
1. 5.13
2. 5.05
3. 5.30
4. 5.04

###

tested on: A549; test: Alamar Blue proliferation assay, A549; assay type: cell-based; conditions: Homo sapiens, 96 h; A549, 0-40 μM, 0.5% serum, 4 days; read-out: IC50 for growth inhibition
EXPERIMENTAL ENDPOINT: IC50

Query string: Dear colleague, I am looking for the recorded IC50 of the following molecule: Cc1cc(SCc2sc(-c3cccc4ccccc34)nc2C)ccc1OCC(=O)O
Result string: 8 to 10 µM

###

assay: Proliferation assay of Table 2 (cell line not stated); format: cell-based; settings: concentration that inhibits cell viability (or growth) by 50% relative to vehicle control; read-out: Prolif IC50
What IC50 was measured for each of the following?
Answers are plain numbers, in µM.

Reference set (2 entries):
COMPOUND	OBSERVED RESULT
Cc1cc(SCCC(=O)N(Cc2ccc(Cl)cc2Cl)C(c2ccccc2)c2ccccc2)ccc1OCC(=O)O [SRI-010264]	5.9
Cc1cc(SCCOC(c2ccccc2)c2ccccc2)ccc1OCC(=O)O [SRI-010253]	14

State the recorded IC50 for every item in the following list.
1. Cc1cc(SCCN2c3ccccc3Sc3ccc(C(F)(F)F)cc32)ccc1OCC(=O)O [SRI-010250]
2. Cc1cc(SCCC(=O)N(Cc2ccc(Cl)cc2)C(c2ccccc2)c2ccccc2)ccc1OCC(=O)O [SRI-010262]
3. Cc1cc(SCCN2c3ccccc3Sc3ccccc32)ccc1OCC(=O)O [SRI-010251]
4. Cc1cc(SCCOC2c3ccccc3-c3ccccc32)ccc1OCC(=O)O [SRI-010248]
5. Cc1cc(SCC(=O)N(Cc2ccc(F)c(F)c2)C(c2ccccc2)c2ccccc2)ccc1OCC(=O)O [SRI-010257]
6. Cc1cc(SCc2sc(-c3cccc4ccccc34)nc2C)ccc1OCC(=O)O [SR 13904]
7. Cc1cc(SCCOC(c2ccc(F)cc2)c2ccc(F)cc2)ccc1OCC(=O)O [SRI-010249]

Result string:
1. 7
2. 5.6
3. 7.6
4. 9
5. 9.1
6. 12
7. 5.4

###

molecular target: ligand binding domain of PPAR delta (Homo sapiens, UniProt Q03181); construct: purchased Invitrogen; assay: LANTHA SCREEN TR-FRET PPARδ Competitive Binding Assay; settings: competes binding by a labeled pan-agonist by 50%; * = determined by approximation from a semi log graph; read-out: TR-F binding IC50
Field: IC50. Provide a value for each of the compounds that follow.

Cc1cc(SCCC(=O)N(Cc2ccc(Cl)cc2)C(c2ccccc2)c2ccccc2)ccc1OCC(=O)O > 18 µM
Cc1cc(SCC(=O)N(Cc2ccc(F)c(F)c2)C(c2ccccc2)c2ccccc2)ccc1OCC(=O)O > 23 µM
Cc1cc(SCCOC(c2ccccc2)c2ccccc2)ccc1OCC(=O)O 3 µM
Cc1cc(SCCC(=O)N(Cc2ccccc2)C(c2ccccc2)c2ccccc2)ccc1OCC(=O)O > 20 µM

Record IC50 per entry; entries follow.
1. Cc1cc(SCC(=O)N(Cc2ccccc2)C(c2ccccc2)c2ccccc2)ccc1OCC(=O)O
2. Cc1cc(SCCC(=O)N(Cc2ccc(Cl)cc2Cl)C(c2ccccc2)c2ccccc2)ccc1OCC(=O)O
3. Cc1cc(SCCn2c3ccccc3c3ccccc32)ccc1OCC(=O)O

Result string:
> 12 µM
> 25 µM
> 30 µM

###

molecular target: ligand binding domain of PPAR delta (Homo sapiens, UniProt Q03181); construct: purchased Invitrogen; test: LANTHA SCREEN TR-FRET PPARδ Competitive Binding Assay; conditions: competes binding by a labeled pan-agonist by 50%; * = determined by approximation from a semi log graph; read-out: TR-F binding IC50
EXPERIMENTAL ENDPOINT: IC50

MOLECULE	OBSERVED RESULT
Cc1cc(SCC(=O)N(Cc2ccc(Cl)cc2Cl)C(c2ccccc2)c2ccccc2)ccc1OCC(=O)O [SRI-010258]	> 14 µM
Cc1cc(SCCOC2c3ccccc3-c3ccccc32)ccc1OCC(=O)O [SRI-010248]	> 30 µM
Cc1cc(SCCC(=O)N(Cc2ccc(F)c(F)c2)C(c2ccccc2)c2ccccc2)ccc1OCC(=O)O [SRI-010263]	> 25 µM

In the following, a different molecule is considered.
Query string: Return reported IC50; argument: Cc1cc(SCC(=O)N(Cc2ccc(Cl)cc2)C(c2ccccc2)c2ccccc2)ccc1OCC(=O)O [SRI-010256]
Result string: > 18 µM
